- experimental.system: recombinant human Dopamine Subtype D2s receptors (Homo sapiens, UniProt P14416)
- Construct: purchased Perkin Elmer
- Sequence (P14416 1-414 isoform P14416-2): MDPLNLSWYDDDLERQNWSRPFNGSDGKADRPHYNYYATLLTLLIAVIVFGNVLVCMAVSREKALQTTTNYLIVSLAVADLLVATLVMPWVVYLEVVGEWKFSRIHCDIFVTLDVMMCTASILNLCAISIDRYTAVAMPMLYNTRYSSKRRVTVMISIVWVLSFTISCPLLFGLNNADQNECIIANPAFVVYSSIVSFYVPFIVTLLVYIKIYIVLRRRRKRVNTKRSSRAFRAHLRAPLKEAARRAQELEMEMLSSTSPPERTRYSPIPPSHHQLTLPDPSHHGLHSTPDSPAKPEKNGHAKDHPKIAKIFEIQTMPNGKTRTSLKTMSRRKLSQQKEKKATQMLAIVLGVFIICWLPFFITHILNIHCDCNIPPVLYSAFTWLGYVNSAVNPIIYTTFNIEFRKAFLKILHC
- protocol.details: Dopamine D2 selectivity binding assay ([3H]-spiperone)
- measurement.conditions: inhibition of [3H]-spiperone binding, human D2s membranes; read-out: D2 bind pIC50 (converted)
Where a name gives a salt, the structure may show the parent alone.
Note to self: IC50 under 3 µM means 1, ties and anything higher get 0.

Lookup: Does the reported IC50 of the following compound sit strictly below 3 µM? COCCn1cc(-c2cccc(CCOCCC(=O)N(CCNCCc3ccc(O)c4c3OCC(=O)N4)C3CCCCC3)c2)cn1 [Example 36, Trifluoroacetic Acid Salt]
Found: 0

Lookup: Does the reported IC50 of the following compound sit strictly below 3 µM? Cn1cc(-c2cc(F)cc(CCOCCC(=O)N(CCNCCc3ccc(O)c4c3OCC(=O)N4)C3CCCCC3)c2)cn1 [Example 17, Trifluoroacetic Acid Salt]
Found: 1

Lookup: Does the reported IC50 of the following compound sit strictly below 3 µM? CCn1cc(-c2cccc(CCOCCC(=O)N(CCNCCc3ccc(O)c4c3OCC(=O)N4)C3CCCC3)c2)cn1 [Example 24, Trifluoroacetic Acid Salt]
Found: 0

Lookup: Does the reported IC50 of the following compound sit strictly below 3 µM? Cn1nnnc1-c1cccc(CCOCCC(=O)N(CCNCCc2ccc(O)c3c2OCC(=O)N3)C2CCCCC2)c1 [Example 08, Trifluoroacetic Acid Salt]
Found: 0

Lookup: Does the reported IC50 of the following compound sit strictly below 3 µM? CC(C)n1cc(-c2cccc(CCOCCC(=O)N(CCNCCc3ccc(O)c4c3OCC(=O)N4)C3CCCCC3)c2)nn1 [Example 12, Trifluoroacetic Acid Salt]
Found: 0

Lookup: Does the reported IC50 of the following compound sit strictly below 3 µM? CCn1cc(-c2cccc(CCOCCC(=O)N(CCNCCc3ccc(O)c4c3OCC(=O)N4)C3CCCCC3)c2)cn1
Found: 0

Lookup: Does the reported IC50 of the following compound sit strictly below 3 µM? CCCC[C@@H](C)N(CCNCCc1ccc(O)c2c1OCC(=O)N2)C(=O)CCOCCc1cccc(-c2cnn(C)c2)c1 [Example 30, Trifluoroacetic Acid Salt]
Found: 1

Lookup: Does the reported IC50 of the following compound sit strictly below 3 µM? O=C1COc2c(CCNCCN(C(=O)CCOCCc3cccc(-c4ncon4)c3)C3CCCCC3)ccc(O)c2N1 [Example 11, Trifluoroacetic Acid Salt]
Found: 0

Lookup: Does the reported IC50 of the following compound sit strictly below 3 µM? Cn1nnc(-c2cccc(CCOCCC(=O)N(CCNCCc3ccc(O)c4c3OCC(=O)N4)C3CCCCC3)c2)n1 [Example 07, Trifluoroacetic Acid Salt]
Found: 0

Lookup: Does the reported IC50 of the following compound sit strictly below 3 µM? Cn1nccc1-c1cccc(CCOCCC(=O)N(CCNCCc2ccc(O)c3c2OCC(=O)N3)C2CCCCC2)c1 [Example 03, Trifluoroacetic Acid Salt]
Found: 1

Lookup: Does the reported IC50 of the following compound sit strictly below 3 µM? O=C1COc2c(CCNCCN(C(=O)CCOCCc3cccc(-c4nn[nH]n4)c3)C3CCCCC3)ccc(O)c2N1 [Example 15, Trifluoroacetic Acid Salt]
Found: 0

Lookup: Does the reported IC50 of the following compound sit strictly below 3 µM? Cn1cc(-c2cccc(CCOCCC(=O)N(CCNCCc3ccc(O)c4c3OCC(=O)N4)C3CCCCC3)c2F)cn1 [Example 16, Trifluoroacetic Acid Salt]
Found: 1

Lookup: Does the reported IC50 of the following compound sit strictly below 3 µM? Cn1ccnc1-c1cccc(CCOCCC(=O)N(CCNCCc2ccc(O)c3c2OCC(=O)N3)C2CCCCC2)c1
Found: 0

Lookup: Does the reported IC50 of the following compound sit strictly below 3 µM? Cc1nc(-c2cccc(CCOCCC(=O)N(CCNCCc3ccc(O)c4c3OCC(=O)N4)C3CCCCC3)c2)no1 [Example 27, Trifluoroacetic Acid Salt]
Found: 0

Lookup: Does the reported IC50 of the following compound sit strictly below 3 µM? Cc1nc(-c2cccc(CCOCCC(=O)N(CCNCCc3ccc(O)c4c3OCC(=O)N4)C3CCCCC3)c2)cn1C [Example 35, Trifluoroacetic Acid Salt]
Found: 0

Lookup: Does the reported IC50 of the following compound sit strictly below 3 µM? Cn1cc(-c2cccc(CCOCCC(=O)N(CCNCCc3ccc(O)c4c3OCC(=O)N4)C3CCCCCC3)c2)cn1 [Example 31, Trifluoroacetic Acid Salt]
Found: 0
